molecular target: RORγ (Homo sapiens); assay: RORγ Gal4 Reporter Gene Assay; type: cell-based
Sequence (P51449 whole entry, looked up, the tested form may be a part): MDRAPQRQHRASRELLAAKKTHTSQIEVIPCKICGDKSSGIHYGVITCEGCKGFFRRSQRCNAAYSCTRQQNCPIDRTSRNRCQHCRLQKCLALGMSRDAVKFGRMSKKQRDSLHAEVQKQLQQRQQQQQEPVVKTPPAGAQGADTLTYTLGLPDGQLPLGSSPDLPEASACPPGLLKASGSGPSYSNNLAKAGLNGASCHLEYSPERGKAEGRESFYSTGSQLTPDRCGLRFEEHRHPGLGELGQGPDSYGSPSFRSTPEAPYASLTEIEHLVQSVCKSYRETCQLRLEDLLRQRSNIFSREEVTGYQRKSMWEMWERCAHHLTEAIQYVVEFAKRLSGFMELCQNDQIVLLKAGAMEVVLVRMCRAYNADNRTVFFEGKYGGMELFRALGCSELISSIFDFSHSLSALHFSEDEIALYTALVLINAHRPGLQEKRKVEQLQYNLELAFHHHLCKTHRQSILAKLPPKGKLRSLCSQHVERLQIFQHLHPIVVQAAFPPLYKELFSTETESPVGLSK

# STRUCTURE, ASSAY_TARGET, pIC50 (REN)
data = [
    ("CC(C)(C)NS(=O)(=O)c1ccc(-c2sc(C(=O)NC3CCS(=O)(=O)CC3)nc2CC2CCCCC2)c(Cl)c1Cl", "RORγ (Homo sapiens)", "7.0/8.7/8.7"),
    ("CC(C)(C)NS(=O)(=O)c1ccc(-c2sc(C(=O)N[C@H]3C[C@H](C(=O)O)C3)nc2CC2CCCCC2)c(F)c1C(F)F", "RORγ (Homo sapiens)", "6.7/8.7/8.5"),
    ("CC(C)(C)NS(=O)(=O)c1ccc(-c2sc(C(=O)NC3CSC3)nc2CC2CCCCC2)c2ccccc12", "RORγ (Homo sapiens)", "6.8/8.7/8.7"),
]

* * *

molecular target: UniProt:P51449; assay: RORγ Gal4 Reporter Gene Assay; assay type: cell-based
QUANTITY_NAME: pIC50 (FF)

# COMPOUND, QUANTITY_NAME, REPORTED_VALUE
rows = [
    ("CN1CCN(C(=O)c2nc(CC3CCCCC3)c(-c3ccc(S(=O)(=O)NC(C)(C)C)c4ccccc34)s2)CC1", "pIC50 (FF)", "6.6/7.1/7.4"),
    ("CC(O)c1c(S(=O)(=O)NC(C)(C)C)ccc(-c2sc(C(=O)N3CC4(CCS(=O)(=O)CC4)C3)nc2CC2CCCCC2)c1Cl (stereo not shown)", "pIC50 (FF)", "5.9/6.7/6.7"),
    ("CC(C)(C)NS(=O)(=O)c1ccc(-c2sc(C(=O)NCC3(O)CCOCC3)nc2CC2CCCCC2)cc1C(C)(C)O", "pIC50 (FF)", "6.7/7.7/7.7"),
    ("CC(C)(C)NS(=O)(=O)c1ccc(-c2sc(C(=O)N[C@H]3C[C@H](C(=O)O)C3)nc2CC2CCCCC2)cc1C(F)(F)F", "pIC50 (FF)", "6.9/8.0/8.0"),
    ("CC(C)(C)NS(=O)(=O)c1ccc(-c2sc(C(=O)N[C@H]3C[C@H](C(=O)O)C3)nc2CC2CCCCC2)c(C(F)F)c1Cl", "pIC50 (FF)", "6.5/8.5/8.5"),
    ("CC(C)(C)NS(=O)(=O)c1ccc(-c2sc(C(=O)N[C@H]3C[C@H](C(=O)O)C3)nc2CC2CCCCC2)cc1C(C)(C)O", "pIC50 (FF)", "6.5/8.0/8.0"),
    ("CC(C)(C)c1cc(-c2nc(C(=O)NC3COC3)ncc2CC2CCCCC2)cc(C(C)(C)C)c1", "pIC50 (FF)", "5.4/6.4/6.5"),
    ("CC(C)(C)NS(=O)(=O)c1ccc(-c2nc(C(=O)NC3CCS(=O)(=O)CC3)oc2CC2CCCCC2)c2ccccc12", "pIC50 (FF)", "6.3/7.2/7.3"),
    ("CC(C)(C)NS(=O)(=O)c1ccc(-c2nc(C(=O)NC34CCC(C(=O)O)(CC3)CC4)oc2CC2CCCCC2)c2ccccc12", "pIC50 (FF)", "6.2/7.4/7.4"),
    ("CC(C)(C)NS(=O)(=O)c1ccc(-c2sc(C(=O)NC3CCS(=O)(=O)CC3)nc2C2CCCCC2)c2ccccc12", "pIC50 (FF)", "6.9/8.2/8.2"),
    ("CC1CCN(C(=O)c2nc(C(=O)NC3CC34CCOCC4)sc2-c2ccc(S(=O)(=O)NC(C)(C)C)c3ccccc23)CC1 (stereo not shown)", "pIC50 (FF)", "nt/7.5/7.7"),
    ("COC(=O)C(C)(C)CCNC(=O)c1nc(CC2CCCCC2)c(-c2cc(C(C)(C)C)cc(C3(C)CC3)c2)s1", "pIC50 (FF)", "6.7/6.2/6.3"),
    ("CC(C)(C)NS(=O)(=O)c1ccc(-c2sc(C(=O)N[C@H]3C[C@H](C(=O)O)C3)nc2CC2CCCCC2)cc1C(C)(C)C", "pIC50 (FF)", "6.2/7.5/7.6"),
    ("CC(C)(C)NS(=O)(=O)c1ccc(-c2sc(C(=O)N3CC4(CCS(=O)(=O)CC4)C3)nc2CC2CCCCC2)c(Cl)c1Cl", "pIC50 (FF)", "7.1/7.9/8.0"),
    ("CC(C)(C)NS(=O)(=O)c1ccc(-c2sc(C(=O)NC3CSC3)nc2CC2CCCCC2)c2ccccc12", "pIC50 (FF)", "6.8/8.7/8.7"),
    ("CC(C)(C)NS(=O)(=O)c1ccc(-c2oc(C(=O)NC34CCC(C(=O)O)(CC3)C4)nc2CC2CCCCC2)c2ccccc12", "pIC50 (FF)", "6.1/8.3/8.4"),
    ("COC(c1nc(C(=O)N[C@H]2C[C@H](C(=O)O)C2)sc1-c1ccc(S(=O)(=O)NC(C)(C)C)c(Cl)c1Cl)C1CCCCC1 (stereo partly shown)", "pIC50 (FF)", "6.0/7.3/7.2"),
    ("CN(C(=O)c1nc(CC2CCCCC2)c(-c2ccc(S(=O)(=O)NC(C)(C)C)c3ccccc23)o1)C1CCOCC1", "pIC50 (FF)", "6.6/7.1/7.3"),
    ("CC(C)(C)NS(=O)(=O)c1ccc(-c2oc(C(=O)NC34CCC(C(=O)NS(C)(=O)=O)(CC3)CC4)nc2CC2CCCCC2)c2ccccc12", "pIC50 (FF)", "6.0/7.3/7.4"),
    ("CC1(c2cc(C(=O)NC3(C#N)CC3)cc(-c3sc(C(=O)NC4CCS(=O)(=O)CC4)nc3CC3CCCCC3)c2)CC1", "pIC50 (FF)", "6.6/7.3/7.4"),
    ("CC(C)(C)NS(=O)(=O)c1ccc(-c2sc(S(N)(=O)=O)nc2CC2CCCCC2)cc1C(F)(F)F", "pIC50 (FF)", "6.5/6.7/6.8"),
    ("O=C(NC1CCS(=O)(=O)CC1)c1nc(CC2CCCCC2)c(-c2ccc(N3CCOCC3)c3ccccc23)s1", "pIC50 (FF)", "6.5/6.9/6.9"),
    ("CC(C)(C)c1cc(-c2sc(S(N)(=O)=O)nc2CC2CCCCC2)cc(C(C)(C)C)c1", "pIC50 (FF)", "6.8/6.4/6.4"),
    ("CC1CCN(C(=O)c2nc(C(=O)NCC(C)(C)O)sc2-c2ccc(S(=O)(=O)N(CC(F)(F)F)C(C)(C)C)c3ccccc23)CC1", "pIC50 (FF)", "nt/7.5/7.7"),
    ("CC(C)(C)NS(=O)(=O)c1ccc(-c2sc(C(=O)N3CC(C(C)(C)C(=O)O)C3)nc2CC2CCCCC2)c(Cl)c1Cl", "pIC50 (FF)", "6.1/6.9/6.9"),
    ("COC(c1nc(C(=O)NC2CCOCC2)sc1-c1ccc(S(=O)(=O)NC(C)(C)C)c(C(C)(C)C)c1)C1CCCCC1 (stereo not shown)", "pIC50 (FF)", "6.1/6.7/6.7"),
]
